target: c-Src SH2; experiment: SH2 binding enrichment of the phosphorylated peptide, bacterial display (enrichment ratio); higher = better substrate or ligand; peptides without Tyr show the background;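 further: peptide library displayed on the E. coli surface as eCPX fusions, selected cells deep-sequenced, score is each peptide's frequency after selection divided by its frequency in the input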
Would you please tag the item true (1) when its SH2 binding enrichment is 0.7 or above, and false (0) when it is below?

>>> df
                      sequence_string      group
 0            KPRKPYTIKKP [BRD2_Y715]   true (1)
 1       RLNCIYYKDQT [RS1_Y165_W163C]  false (0)
 2   TQNAVYSAANF [DDX5_Y535_G533A_YF]  false (0)
 3    VNFQPYRKHKF [TEX37_Y28_D24N_YF]  false (0)
 4      DPLLTYRFPPN [LMNA_Y481_K486N]  false (0)
 5    LFHENYNAGTF [CFI_Y421_I416L_YF]  false (0)
 6           QDTSRYTVSNL [BIRC3_Y245]  false (0)
 7      PRIKTYMRPSP [TDP1_Y497_H493R]   true (1)
 8   CGLPRYRWLTH [TSPAN12_Y143_Y138C]  false (0)
 9     EMTAEYTCTRK [ACAD9_Y325_A326T]  false (0)
10     EEGNPYYSSTR [MCCC2_Y520_A524T]   true (1)
11  DGMADCSDPSF [CDC5L_Y459_Y459C_YF]  false (0)
12      LENSTYQYIHV [CRB1_Y760_R764H]   true (1)
13   RNVFFYSFLLK [PTEN_Y178_Y174N_YF]   true (1)
14        IHFAIYLLKFS [ARMC9_Y107_YF]   true (1)
15  NARGLYFKLHN [GATA2_Y376_C373R_YF]  false (0)
16        KSVEEYANCHL [TF_Y593_P589S]   true (1)
17        TYGVLYKARNK [CDK2_Y19_V18L]  false (0)
18        HKANEYYPVVL [ADAMTS18_Y764]   true (1)
19    HRGFLYLAIEF [TEK_Y899_Y897F_YF]  false (0)
20        VRFMAYTDETC [F8_Y450_F455C]  false (0)
21     LTTEVYFPSIK [C5orf64_Y60_A57T]  false (0)
22     LKMLVYMDMSK [LRRC7_Y234_L235M]  false (0)
23      CTTIHYHYMCN [TP53_Y234_N235H]   true (1)
24        KIVQDYLEKFY [MMP8_Y36_T32I]  false (0)
25            INMKKYCKKDY [NTN1_Y490]   true (1)
26      LKEIHYPPFTD [ALDH3B2_Y362_YF]  false (0)

###

target: SHP2-C SH2; test: SH2 binding enrichment of the phosphorylated peptide, bacterial display (enrichment ratio); higher = better substrate or ligand; peptides without Tyr show the background
Would you please tag the item 1 when its SH2 binding enrichment is 0.9 or above, and -1 when it is below?

In [3]: df
Out[3]:
                       sequence_string  group
 0             NQDRTYYESVR [SPEN_Y632]      1
 1      HHIDYYKETTN [FGFR1_Y654_K656E]      1
 2   GHNDVYISKHV [GRIN2A_Y1423_E1426K]     -1
 3      TLQSMYGCDLG [HLA-B_Y123_V127L]     -1
 4    HPAGNYSLSSV [ARFGAP3_Y473_Q468H]     -1
 5           GLRSYYETSKM [MAGED2_Y449]     -1
 6        KKYPDYIQSAM [SGMS2_Y59_I62S]     -1
 7            LWQSIYNLEAE [TNNT2_Y251]      1
 8    NLMPAYHKCIQ [CYP21A2_Y190_Y191H]     -1
 9        RLRKYHLGKYL [KLB_Y906_Y906H]     -1
10           PGLRGYPGLSG [COL4A2_Y306]     -1
11   FVPSFYHAFSG [ACTN4_Y265_S262P_YF]      1
12      TWQSMYGCDVG [HLA-B_Y123_L119W]     -1
13       MSSLFYANALF [HOXB7_Y6_T9A_YF]     -1
14   RLLRGYDQLAF [HLA-C_Y137_S140L_YF]      1
15            ADDSYYTARSA [ZAP70_Y493]     -1
16    AQESNYRLLRQ [SLC20A2_Y377_R382Q]      1
17            QRVLLYVRRET [GRHL3_Y518]     -1
18             FAELVYTGFWH [ASS1_Y322]     -1
19           VVEDGYEFFAK [PPP1CB_Y254]     -1
20         TYGVLYKARNK [CDK2_Y19_V18L]     -1
21           WVYNHYRWIIW [BRCA2_Y2624]      1
22           DVRQEYPGMIL [PLXND1_Y616]     -1
23             GGDVIYKGFED [NFU1_Y194]     -1
24              FADIAYNYRHG [PAH_Y166]     -1
25      DTYDPYLDIAL [USP36_Y268_V271I]     -1
26            LSGVIYVILRK [PMP22_Y153]      1
27             KTSGNYLAVTG [WDR19_Y28]     -1
28             RNDQVYQPLRD [CD3D_Y149]     -1
29    DFFDLYGGEKK [PTPN11_Y66_F71K_YF]     -1
30          EFKDAYKFAAD [BRDT_Y335_YF]     -1
31      RTMPDYTSFNT [EPHB2_Y912_I909M]     -1
32      LQPNNCQFCGG [CSF1R_Y969_Y969C]     -1
33       TVVVPYEPPEV [TP53_Y220_S215T]     -1
34     HRGFLYLAIEF [TEK_Y899_Y897F_YF]     -1
35       ADGLEYSRTEL [MMUT_Y287_G291E]     -1
36    TQNAVYSAANF [DDX5_Y535_G533A_YF]     -1
37      QADIIYVNTQL [MERTK_Y872_V870I]     -1
38        FDGKEYDPVEA [MAPRE2_Y167_YF]     -1
39   ALVFLSFCIIF [SIGLEC12_Y494_Y494S]      1
40       DPLLTYRFPPN [LMNA_Y481_K486N]     -1
41      RFLRGYHQDAY [HLA-A_Y137_R138H]     -1
42            QLAPQYTYAQG [FLNA_Y1761]      1
43    ISSLPYMKMIF [SLC4A11_Y853_M848I]      1
44     VNFQPYRKHKF [TEX37_Y28_D24N_YF]     -1
45                         TEGNEYVFRVA     -1
46      STDDGCIDLQF [TMEM230_Y29_Y29C]     -1
47         VLVSQYEKLDA [AMZ2_Y26_N30D]     -1
48       RDMNACIRPSP [MMAA_Y207_Y207C]     -1
49           HNGVSYYINLC [IGF2R_Y2024]      1
50        SFMVRYNQPRV [GRIN2D_Y736_YF]      1
51  PVDVAYRHGFF [PLEC_Y2967_R2969H_YF]     -1
52            EFKKHYGYSLY [ANXA3_Y295]      1
53              PGGNIYISPLK [RB1_Y805]      1
